- TARGET OR TEST SYSTEM: PD-1/PD-L1 interaction (Homo sapiens, UniProt Q9NZQ7)
- Construct: expressed in transfected cells; host or cells: CHO cells (aAPC-PD-L1) co-cultured with Jurkat cells overexpressing PD-1 and an NFAT-luciferase reporter
- Sequence (Q9NZQ7 19-290): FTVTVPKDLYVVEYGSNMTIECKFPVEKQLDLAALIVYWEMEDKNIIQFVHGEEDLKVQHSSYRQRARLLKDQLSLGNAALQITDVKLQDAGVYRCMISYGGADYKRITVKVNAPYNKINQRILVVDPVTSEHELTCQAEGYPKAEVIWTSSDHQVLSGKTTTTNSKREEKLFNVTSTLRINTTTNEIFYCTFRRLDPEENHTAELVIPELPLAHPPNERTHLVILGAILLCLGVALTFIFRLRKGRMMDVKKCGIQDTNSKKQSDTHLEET
- TEST DESCRIPTION: PD-1/PD-L1 NFAT reporter co-culture assay
- Format: cell-based
- CONDITION CONTEXT: Jurkat PD-1 NFAT-luciferase cells co-cultured with aAPC-PD-L1 CHO cells, 6 hrs at 37° C.; read-out: EC50 NFAT Luciferase
Could you mark each record TRUE if its EC50 falls strictly under 300 nM, and FALSE if it equals or exceeds it?

Worked cases, answers included:
• COc1nc(O[C@H]2CCc3c(-c4cccc(-c5ccc(CNC[C@@H]6CCC(=O)N6)cc5)c4Cl)cccc32)c(Cl)cc1CN1CCC[C@@H]1C(=O)O = TRUE
• Cc1c(COc2cc(O)c(CNCCCP(=O)(O)O)cc2Cl)cccc1-c1cccc(COc2cc(OCc3cncc(C#N)c3)c(CNCCCP(=O)(O)O)cc2Cl)c1C = FALSE
• Cc1c(COc2cc(OCc3cncc(C#N)c3)c(CNCCO)cc2Cl)cccc1-c1cccc(COc2cc(OCc3cncc(C#N)c3)c(CNCCO)cc2Cl)c1 = FALSE

Query block: Lab log: compare recorded EC50 with 300 nM; is it strictly lower for "N#Cc1cc(C#N)cc(COc2nc(OCc3cccc(-c4cccc(-c5ccc(CN6CC7(CCC(=O)N7)C6)cc5)c4Cl)c3Cl)c(Cl)cc2CNC[C@@H](O)CC(=O)O)c1" ?
Result block: TRUE

Query block: Likewise for "Cc1c(COc2nc(OCCc3cncnc3)c(CNCC(=O)O)cc2Cl)cccc1-c1cccc(COc2nc(OCCc3cncnc3)c(CNCC(=O)O)cc2Cl)c1C" ?
Result block: TRUE

Query block: Continue with "COc1nc(-c2cccc(-c3cccc4c3CC[C@@H]4Oc3nc(OC)c(CNC[C@@H](O)CC(=O)O)cc3Cl)c2Cl)ccc1CNC[C@@H]1CCC(=O)N1"
Result block: TRUE
